Recorded values, source PubChem BioAssay (NCI).

# Test system: U251 CNS
# ASSAY DETAILS: NCI tumour cell line growth inhibition, 48 h
Item-by-item account of TGI
REPORTED ENDPOINT: TGI

• O=C(Cn1cc(-c2ccccc2)nn1)NC1CCCC1 = > 100 µM
• COc1ccc(N=C2C(=O)C3=C(OC(C)(C)CC3)c3ccccc32)cc1 = 1.65 µM
• COC(=O)[C@@H]1C[C@H]([Se]c2ccccc2)CN1S(=O)(=O)c1ccc(C)cc1 = > 100 µM
• CCOC(=O)/C(=C\NCC(OCC)OCC)c1nc2ccccc2[nH]1 = > 100 µM
• Oc1ccc(CNCc2ccccc2)c2cccnc12 = 2.77 µM
• COc1ccc(-c2nn(-c3cccc(NC(=O)Nc4ccc(Cl)c(C(F)(F)F)c4)c3)cc2-c2ccncc2)cc1Cl = 3.34 µM
• CN(C)CCCN(c1nc(C(Cl)(Cl)Cl)ns1)c1nc(C(Cl)(Cl)Cl)ns1 = 3.22 µM
• Cn1cccc1-c1cc(-c2cccs2)[nH]c(=O)c1C#N = > 100 µM
• COC(=O)C(C(=O)C(=O)NC1=C(Cl)C(=O)c2ccccc2C1=O)c1csc(-n2nc(-c3ccccc3)cc2-c2ccccc2)n1 (stereo not drawn) = > 100 µM
• O=C1OCc2c1cc(F)cc2[N+](=O)[O-] = > 100 µM
• Cc1oc2c(C)c(O)c3c(c2c1C1(C)OCCO1)C(=O)C=C(Cl)C3=O = > 100 µM
• COC(=O)C1C(O)CCC2CN3CCc4c([nH]c5cccc(OC)c45)C3CC21 (stereo not drawn) = > 100 µM
• COc1ccc(N=c2ssc(C(=S)Nc3ccc(OC)cc3)c2S)cc1 = > 100 µM
• CC1(C)C=C(/C=N/Nc2ccc([N+](=O)[O-])cc2)C(C#N)=C(O)C1(C#N)C#N = > 100 µM
• CC1(C)C(O)C[C@]23CCC[C@](C)(C[C@@H](O)C12)C3 (stereo partly drawn) = > 100 µM
• O=C1c2ccccc2-c2nc3ccc(O)cc3n21 = > 100 µM
• Cc1cc(N2CCCCCC2)nc(NC2CCCC(Nc3ccnc4cc(Cl)ccc34)C2)n1 (stereo not drawn) = 2.78 µM
• CCCCCCCC/C=C/CCCCCCCC1=NC(C)(C)CN1C(C)C = 3 µM
• COC(=O)C(C)NP(=O)(OCc1ccc(Cn2cnc3c(=O)[nH]c(N)nc32)cc1)Oc1ccccc1 (stereo not drawn) = > 100 µM
• O=S(=O)(O)c1cccc2c(N=Nc3c(O)ccc4ccccc34)cccc12 = > 100 µM
• Cc1cc(C)c(O)c(Cc2cccc(Cc3cc(C)cc(C)c3O)c2O)c1 = > 100 µM
• CC(C)OCC(O)COc1ccc2ccc(=O)oc2c1 (stereo not drawn) = > 100 µM
• N.N.N.N.N.N.[I-].[Os] = > 100 µM
• C=C[C@]1(C)CCC2=C(CCC3C2(C)CCC[C@]3(C)CO)C1 (stereo partly drawn) = 63.8 µM
• CC(=O)OCc1cc(OC(C)=O)cnc1COC(C)=O = > 100 µM
• Cc1cn(C2CC(O)C(Cn3cc(Cn4ncc(=O)[nH]c4=O)nn3)O2)c(=O)[nH]c1=O (stereo not drawn) = > 100 µM
• CCCc1cc2cc(-n3nc(C)c4c3CC(C)(C)CC4=O)cc(NC3CCC(O)CC3)c2c(=O)[nH]1 (stereo not drawn) = > 100 µM
• Cc1ccc(S(=O)(=O)OC2=C/C(=N\c3onc(C)c3C)c3ccccc3C2=O)cc1 = 21.1 µM
• NCC#CCNCCCN1CC1 = > 100 µM
• c1ccc(C2C3=C(CCCC3)Nc3nc4cc5ccccc5cc4n32)cc1 (stereo not drawn) = > 100 µM
• C[C@]12CCC(=O)C=C1CC[C@@H]1[C@@H]2[C@@H](O)C[C@@]2(C)[C@H]1CC[C@]2(O)C(=O)CO = > 100 µM
• Cc1ccc(OCC2OC(C#N)C(Oc3ccc(C)cc3)C2Oc2ccc(C)cc2)cc1 (stereo not drawn) = > 100 µM
• O=C1C(=O)c2ccccc2-c2ccccc21 = 3.53 µM
• S=c1nc2[nH]ncc2c(N/N=C/c2ccccc2)[nH]1 = > 100 µM
• O=[n+]1c2c(n([O-])c3ccccc31)-c1cccc3cccc-2c13 = > 100 µM
• COc1cccc2c(NNc3ccccc3)c3ccc([N+](=O)[O-])cc3nc12 = > 100 µM
• Cn1c(=O)c2c(no[n+]2[O-])n(C)c1=O = 49.4 µM
• C=C1C[C@@H](O)[C@@H](Br)C(C)(C)[C@]12CCC(C)(Cl)C(Br)C2 (stereo partly drawn) = > 55.9 µM
• COC(=O)C1=NN2c3ccccc3C(=O)OCCC2(C)C1 (stereo not drawn) = > 100 µM
• O=c1c2cc([N+](=O)[O-])ccc2n(Cc2ccccc2)n1Cc1ccccc1 = > 31.6 µM
• N#Cc1c(-c2ccccc2)c(N=Nc2ccc(F)cc2)c(=O)n2c1[nH]c1ccccc12 = 18.1 µM
• c1cc(OCCN2CCCCCC2)ccc1CNc1ccc2nc(CCC3CCCCC3)[nH]c2c1 = 3.17 µM
• Cc1cc(O)c(C(C)C)cc1CN1CCCCC1 = > 100 µM
